Attribution: patent US20220259212A1

- TGT: Recombinant full-length human IDO1 (Homo sapiens, UniProt P14902)
- Construct: Recombinant full-length human IDO1 with a N-terminal hexahistidine tag; hexahistidine (N); made in house; host or cells: E. coli
- Sequence (P14902 whole entry): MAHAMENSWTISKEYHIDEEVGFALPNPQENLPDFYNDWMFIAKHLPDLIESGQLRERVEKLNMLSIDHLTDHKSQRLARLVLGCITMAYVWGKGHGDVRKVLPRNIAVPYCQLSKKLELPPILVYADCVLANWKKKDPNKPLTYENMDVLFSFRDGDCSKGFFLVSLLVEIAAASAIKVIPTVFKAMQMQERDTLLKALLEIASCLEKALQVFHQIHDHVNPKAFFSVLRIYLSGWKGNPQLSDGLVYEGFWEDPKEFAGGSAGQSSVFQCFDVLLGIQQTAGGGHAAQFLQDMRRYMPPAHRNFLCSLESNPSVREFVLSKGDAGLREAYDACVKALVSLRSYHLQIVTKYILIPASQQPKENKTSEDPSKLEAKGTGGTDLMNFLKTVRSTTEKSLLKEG
- EXPERIMENTAL DETAILS: IDO1 enzymatic assay (NFK quantified by LCMS)
- Assay type: biochemical
- MEASUREMENT CONDITIONS: 2 nM enzyme, 5 μM L-tryptophan, 30 min pre-incubation, pH6.5; mean if measured multiple times; read-out: hIDO activity (IC50 in nM)
READOUT TYPE: IC50 (nM)
Give bare numbers, in nM.

Recorded results for 3 compounds are shown here.
[
  {
    "COMPOUND": "COC(=O)Nc1ccc(-n2cc(C(O)c3c(C4CC4)ccc4cncn34)nn2)cc1 (racemic) [Example 6]",
    "TGT": "Recombinant full-length human IDO1 (Homo sapiens, UniProt P14902)",
    "IC50 [nM]": 9.14
  },
  {
    "COMPOUND": "CCc1ccc2cncn2c1[C@@H](O)c1cn(-c2cc(F)c(OC)cc2F)nn1 [Example 35a]",
    "TGT": "Recombinant full-length human IDO1 (Homo sapiens, UniProt P14902)",
    "IC50 [nM]": 2.39
  },
  {
    "COMPOUND": "Nc1ccc(-n2cc([C@H](O)c3c(C4CC4)ncc4cncn34)nn2)cc1 [Example 41]",
    "TGT": "Recombinant full-length human IDO1 (Homo sapiens, UniProt P14902)",
    "IC50 [nM]": 17.5
  }
]

Hi there! I need IC50 for each item below, if you can.
1. OC(c1ccn(-c2ccccc2)n1)c1c(Cl)ccc2cncn12 (racemic) [Ref2, reference compound]
2. COc1ccc(-n2cc(C(O)c3c(C4CC4)ncc4cncn34)nn2)cc1Cl (racemic) [Example 11]
3. Oc1ccc(-n2cc([C@H](O)c3c(C4CC4)ncc4cncn34)nn2)cc1Cl [Example 10a]

1: 433; 2: 12.5; 3: 2.93

---

Kindly supply the reported IC50 values for the records listed here.
- TGT: IDO1 in SKOV3 cells (Homo sapiens, UniProt P14902)
- Construct: SKOV3 cells (NCI, No. 0503405) which upregulate IDO1 after stimulation with IFNγ; host or cells: SKOV3 cells stimulated with IFNγ
- Sequence (P14902 whole entry): as the sequence (P14902 whole entry) above
- EXPERIMENTAL DETAILS: Cell-based IDO inhibitory activity in IFNγ-stimulated SKOV3 cells (NFK + kynurenine by LCMS)
- MEASUREMENT CONDITIONS: IFNγ 50 ng/ml, 200 uM L-tryptophan, 24 hours
Answers are plain numbers, in nM.

Here's what some known entries look like.
[
  {
    "MOLECULE": "CNc1ccc(-n2cc([C@H](O)c3c(C4CC4)ncc4cncn34)nn2)cc1",
    "IC50 / nM": 199
  },
  {
    "MOLECULE": "Cc1c(C(O)c2c(Cl)ccc3cncn23)nnn1-c1ccccc1 (racemic)",
    "IC50 / nM": 86
  },
  {
    "MOLECULE": "O[C@@H](c1cn(-c2ccc(N3CCCC3)cc2)nn1)c1c(C2CC2)ncc2cncn12",
    "IC50 / nM": 154
  }
]

List IC50 for every entry below, keeping the order given.
1. Oc1ccc(-n2cc(C(O)c3c(C4CC4)ccc4cncn34)nn2)cc1 (racemic)
2. COc1ccc(-n2cc(C(O)c3c(C4CC4)ncc4cncn34)nn2)cc1 (racemic)
3. Cc1ccc2cncn2c1C(O)c1cn(-c2ccccc2)nn1 (racemic)
4. COc1cc(F)c(-n2nnc(C(O)c3c(C4CC4)ncc4cncn34)c2C)cc1F (racemic)
5. Oc1ccc(-n2cc(C(O)c3c(C4CC4)ncc4cncn34)nn2)cc1Cl (racemic)

1: 34.6; 2: 172; 3: 225; 4: 35; 5: 25.4

---

- TGT: IDO1 in SKOV3 cells (Homo sapiens, UniProt P14902)
- Construct: SKOV3 cells (NCI, No. 0503405) which upregulate IDO1 after stimulation with IFNγ; host or cells: SKOV3 cells stimulated with IFNγ
- EXPERIMENTAL DETAILS: Cell-based IDO inhibitory activity in IFNγ-stimulated SKOV3 cells (NFK + kynurenine by LCMS)
- MEASUREMENT CONDITIONS: IFNγ 50 ng/ml, 200 uM L-tryptophan, 24 hours
Each entry belongs to exactly one class, chosen by where its IC50 falls: low bracket (below 20 nM), middle bracket (20 nM to below 50 nM), high bracket (50 nM or more)

// known answers, use as guide
[
  {
    "COMPOUND": "CCc1ccc2cncn2c1C(O)c1cn(-c2ccc(OC)cc2)nn1 (racemic) [Example 34]",
    "TGT": "IDO1 in SKOV3 cells (Homo sapiens, UniProt P14902)",
    "ASSIGNED CATEGORY": "low bracket"
  },
  {
    "COMPOUND": "COc1c(F)cc(-n2cc([C@H](O)c3c(C4CC4)ncc4cncn34)nn2)cc1Cl [Example 26]",
    "TGT": "IDO1 in SKOV3 cells (Homo sapiens, UniProt P14902)",
    "ASSIGNED CATEGORY": "high bracket"
  },
  {
    "COMPOUND": "COc1ccc(-n2nnc([C@H](O)c3c(Cl)ccc4cncn34)c2C)cc1 [Example 20a]",
    "TGT": "IDO1 in SKOV3 cells (Homo sapiens, UniProt P14902)",
    "ASSIGNED CATEGORY": "low bracket"
  }
]

Lab log: O[C@@H](c1cn(-c2ccc(N3CCC34COC4)cc2)nn1)c1c(C2CC2)ncc2cncn12 [Example 46] — assign IC50 category
high bracket

Each compound maps to one class by IC50. Which class for Cc1ccc2cncn2c1[C@@H](O)c1cn(-c2ccccc2)nn1 [Example 2a] ?
high bracket

---

Assignment: determine reported IC50 for the given molecules.
- TGT: Recombinant human TDO comprising amino acids 19-407 (Homo sapiens)
- Construct: human TDO comprising amino acids 19-407; hexahistidine (N); made in house; host or cells: E. coli
- EXPERIMENTAL DETAILS: TDO2 enzymatic assay (NFK quantified by LCMS)
- Type: biochemical
- MEASUREMENT CONDITIONS: 15 nM enzyme, 200 μM L-tryptophan, 30 min pre-incubation, pH7; mean if measured multiple times; read-out: hTDO activity (IC50 in nM)

[
  {
    "MOLECULE": "O[C@@H](c1cn(-c2ccccc2)nn1)c1c(C2CC2)ncc2cncn12",
    "IC50": "> 10200 nM"
  }
]

Each molecule below has a reported value. Please supply its IC50.
1. Cc1c(C(O)c2c(Cl)ccc3cncn23)nnn1-c1ccc(O)c(F)c1 (racemic)
2. CC(C)(O)COc1ccc(-n2cc(C(O)c3c(C4CC4)ncc4cncn34)nn2)cc1 (racemic)
3. Oc1ccc(-n2cc([C@H](O)c3c(C4CC4)ncc4cncn34)nn2)cc1F
4. OC(c1cn(-c2ccc(OCC3(F)COC3)cc2)nn1)c1c(C2CC2)ncc2cncn12 (racemic)
5. COC(=O)Nc1ccc(-n2cc(C(O)c3c(C4CC4)ncc4cncn34)nn2)cc1 (racemic)
6. O[C@@H](c1cn(-c2cc(F)c(OCC3(F)COC3)cc2F)nn1)c1c(C2CC2)ncc2cncn12

1. 1460 nM
2. > 10200 nM
3. > 10200 nM
4. > 10200 nM
5. > 10200 nM
6. > 10200 nM

State its IC50 for this molecule: COc1cc(F)c(-n2cc([C@H](O)c3c(Cl)ccc4cncn34)nn2)cc1F
> 10200 nM

---

- TGT: Recombinant full-length human IDO1 (Homo sapiens, UniProt P14902)
- Construct: Recombinant full-length human IDO1 with a N-terminal hexahistidine tag; hexahistidine (N); made in house; host or cells: E. coli
- EXPERIMENTAL DETAILS: IDO1 enzymatic assay (NFK quantified by LCMS)
- Type: biochemical
- MEASUREMENT CONDITIONS: 2 nM enzyme, 5 μM L-tryptophan, 30 min pre-incubation, pH6.5; mean if measured multiple times; read-out: hIDO activity (IC50 in nM)
I'd be grateful if you could share measured log10(IC50) for these entries.
Short version: log10 scale, IC50, nM.

[
  {
    "MOLECULE": "COC(=O)Nc1ccc(-n2cc(C(O)c3c(C4CC4)ncc4cncn34)nn2)cc1 (racemic) [Example 12]",
    "log10(IC50)": 1.33
  }
]

Your task in this section: give log10(IC50) for each listed record.
1. Oc1ccc(-n2cc(C(O)c3c(C4CC4)ccc4cncn34)nn2)cc1 (racemic) [Example 14]
2. Oc1ccc(-n2cc(C(O)c3c(C4CC4)ncc4cncn34)nn2)cc1 (racemic) [Example 15]

1. 0.70
2. 1.12

---

- TGT: Recombinant human TDO comprising amino acids 19-407 (Homo sapiens, UniProt P48775)
- Construct: human TDO comprising amino acids 19-407; hexahistidine (N); made in house; host or cells: E. coli
- Sequence (P48775 19-406 limits assumed): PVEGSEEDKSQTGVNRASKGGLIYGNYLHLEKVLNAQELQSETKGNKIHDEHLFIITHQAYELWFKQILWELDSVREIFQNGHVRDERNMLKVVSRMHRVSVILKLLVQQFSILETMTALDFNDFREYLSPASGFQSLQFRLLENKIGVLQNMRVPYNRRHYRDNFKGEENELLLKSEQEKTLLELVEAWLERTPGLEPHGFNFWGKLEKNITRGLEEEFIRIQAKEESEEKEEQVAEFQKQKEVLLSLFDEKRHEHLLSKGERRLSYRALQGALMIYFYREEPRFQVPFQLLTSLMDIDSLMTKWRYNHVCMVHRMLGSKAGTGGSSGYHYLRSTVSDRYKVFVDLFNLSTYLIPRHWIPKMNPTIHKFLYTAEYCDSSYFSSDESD
- EXPERIMENTAL DETAILS: TDO2 enzymatic assay (NFK quantified by LCMS)
- Type: biochemical
- MEASUREMENT CONDITIONS: 15 nM enzyme, 200 μM L-tryptophan, 30 min pre-incubation, pH7; mean if measured multiple times; read-out: hTDO activity (IC50 in nM)
READOUT TYPE: IC50

Lab note: each molecule below needs its IC50 filled in.
1. COc1ccc(-n2cc(C(O)c3c(C4CC4)ccc4cncn34)nn2)cc1 (racemic)
2. OC(c1cn(-c2ccccc2)nn1)c1c(C2CC2)ncc2cncn12 (racemic)
3. COc1ccc(-n2nnc(C(O)c3c(Cl)ccc4cncn34)c2C)cc1 (racemic)
4. COc1c(F)cc(-n2cc([C@H](O)c3c(C4CC4)ncc4cncn34)nn2)cc1Cl
5. Cc1ccc2cncn2c1C(O)c1cn(-c2ccccc2)nn1 (racemic)
6. COc1ccc(-n2cc([C@H](O)c3c(Cl)ccc4cncn34)nn2)cc1

1: > 10200 nM; 2: > 10200 nM; 3: 5260 nM; 4: > 10200 nM; 5: > 10200 nM; 6: 8600 nM

Respectfully, I request IC50 for each entry included below.
1. COc1cc(F)c(-n2nnc(C(O)c3c(C4CC4)ncc4cncn34)c2C)cc1F (racemic)
2. COc1ccc(-n2nnc(C(O)c3c(Cl)ccc4cncn34)c2Cl)cc1 (racemic)

> 10200 nM
7040 nM

For every record below, what is its IC50?
1. Oc1ccc(-n2cc(C(O)c3c(C4CC4)ccc4cncn34)nn2)cc1 (racemic)
2. COc1ccc(-n2cc(C(O)c3c(C4CC4)ncc4cncn34)nn2)cc1Cl (racemic)
3. OC(c1cn(-c2ccc(OCC3(F)COC3)cc2)nn1)c1c(C2CC2)ccc2cncn12 (racemic)
4. CNc1ccc(-n2cc([C@H](O)c3c(C4CC4)ncc4cncn34)nn2)cc1

> 10200 nM
> 10200 nM
> 10200 nM
> 10200 nM
